B1: TPR 5TU (parent)
chain: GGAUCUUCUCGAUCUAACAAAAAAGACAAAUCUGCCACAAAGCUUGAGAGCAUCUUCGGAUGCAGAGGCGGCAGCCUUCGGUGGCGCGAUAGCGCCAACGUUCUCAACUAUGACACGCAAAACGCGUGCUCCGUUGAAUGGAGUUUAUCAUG

variants of: B1; assay: polymerase ribozyme fitness, log enrichment relative to wild type (log ratio); higher = more active; in vitro selection for triplet polymerase activity
Fewer inactive variants are shown than the library holds.
Catalogue of variants with associated polymerase ribozyme fitness (log ratio)
Property label: polymerase ribozyme fitness (log ratio)

- U15A A20C G59A A60U C93G C105U G133U: ≤ -4.2
- U13C A17C G67C U77G A89C A120C: ≤ -4.2
- C79G U148A: ≤ -4.2
- G83C C125A G136U: -2.54
- U53A A89U: -0.481
- U53A U55G G65C C85G C87U C103U C131A: ≤ -4.2
- A3G U7G G46A A47U C51U G94C C125U G143A: ≤ -4.2
- U33G G83C: -3.6
- C14G C18U C38U U53C G58A U90G C93G A115C C118U A137U: ≤ -4.2
- A52G C114A: -3.48
- A19C C51U A142C: -0.768
- C8U G83U A97G A142U: -4.17
- G58A C116U: 0.457
- G94A U148A: -3.08
- A26U C75U: -3.23
- C35U C36A U55G U127A: -3.9
- A16G A20C C69G C149G: -4.02
- G86A A150C: ≤ -4.2
- G92U U148A: -2.71
- A52G G86U C96G U144C U151C: ≤ -4.2
- C10G C54U U56A G62U G94A C149U: ≤ -4.2
- U55G A107U A122U: -3.21
- U15A G25A G42C C79A: ≤ -4.2
- C79A C96A: -4.03
- U44A A49C: -4.06
- A49C A52C C57A A91U C96G G112A G117U G143C A150G: ≤ -4.2
- A16C A37C A40C C63U A64U C69G C76U G141C: ≤ -4.2
- A16U G50C U56A G84C A97U U101A A113C A119G G133U A137U: ≤ -4.2
- A17U G83A C96U C125U C129U: -1.96
- C8U U15G A49G G59A A60G G70A G86C C93U A106G U135C: ≤ -4.2
- A47C G81C C99A U134G: -4.06
- C5A A40G C87U: -2.81
- A21U C96U A97U U127C U139G: -2.62
- G46C C96U A98U A106G: -0.573
- C8G G143C: -4.08
- U7C A17G A119U: -3.03
- C75U C93G: -3
- A52C C72U C96A C123U: -2.72
- C5A G141U: 0.735
- C5G U101G: 0.0588
- A66G: -2.32
- U31A A41U G83C U111G G136C: ≤ -4.2
- G50C U77G C93G: ≤ -4.2
- A39C C85A C118A: -3.96
- G11C A40C G83U A119G: -2.65
- G83A C93U: -1.36
